TARGET SYSTEM: beta-klotho
PROTOCOL SUMMARY: cell-based or functional assay
OBSERVABLE: Efficacy (ELK-luciferase assay, relative to wild-type FGF21) (%)
Quick note: give the figure in %, leave out the unit.

FGF21 truncation mutant 1-178 (ligand) HPIPDSSPLLQFGGQVRQRYLYTDDAQQTEAHLEIREDGTVGGAADQSPESLLQLKALKPGVIQILGVKTSRFLCQRPDGALYGSLHFDPEACSFRELLLEDGYNVYQSEAHGLPLHLPGNKSPHRDPAPRGPARFLPLPGLPPAPPEPPGILAPQPPDVGSSDPLSMVGPSQGRSPS :: 95

Query: Kindly indicate its recorded Efficacy (ELK-luciferase assay, relative to wild-type FGF21). Item: FGF21 truncation mutant 5-181 (ligand) DSSPLLQFGGQVRQRYLYTDDAQQTEAHLEIREDGTVGGAADQSPESLLQLKALKPGVIQILGVKTSRFLCQRPDGALYGSLHFDPEACSFRELLLEDGYNVYQSEAHGLPLHLPGNKSPHRDPAPRGPARFLPLPGLPPAPPEPPGILAPQPPDVGSSDPLSMVGPSQGRSPSYAS
Reply: 120

Query: Kindly indicate its recorded Efficacy (ELK-luciferase assay, relative to wild-type FGF21). Item: FGF21 truncation mutant 3-181 (ligand) IPDSSPLLQFGGQVRQRYLYTDDAQQTEAHLEIREDGTVGGAADQSPESLLQLKALKPGVIQILGVKTSRFLCQRPDGALYGSLHFDPEACSFRELLLEDGYNVYQSEAHGLPLHLPGNKSPHRDPAPRGPARFLPLPGLPPAPPEPPGILAPQPPDVGSSDPLSMVGPSQGRSPSYAS
Reply: 130
